ASSAY INFO: protein stability index of a GFP-peptide fusion (yeast GPS) (PSI 1-4); higher = more stable; sorted into four equal gates, so the index is relative within each strain
RECORDED CONDITIONS: doa10∆
Would you mind labelling by protein stability index? At or over 3 is 1, under is -1.

| ENTRY SEQUENCE | GROUP LABEL |
| --- | --- |
| LKDFNTERVVEIGPSPT [FAS2] | -1 |
| KLIKFETRNEDDVVVLT [FAS1] | 1 |
| STKKIQVATKYASLKLP [YMR129W/POM152] | -1 |
| VATEPLLDILVKGETRI [PRP8] | -1 |
| HTKSDERSELLRLFNAP [SNF2] | -1 |

Input: Does the sequence DDVISNAGTNDNSFNEL [MCD1] have recorded protein stability index that is 3 or more?
Output: 1

Input: Does the sequence KTGITKKDEDEEADEDM [PRE9] have recorded protein stability index that is 3 or more?
Output: 1

Input: Does the sequence DTFRAGAFDQLKQNAIR [SRP54] have recorded protein stability index that is 3 or more?
Output: -1

Input: Does the sequence GPSVESYELRNTTTYKS [SNF5] have recorded protein stability index that is 3 or more?
Output: -1

Input: Does the sequence EYLTLNDFNDLNIDWST [MED2] have recorded protein stability index that is 3 or more?
Output: -1

Input: Does the sequence SDDKTRQLSPHTLMSFA [PRE1] have recorded protein stability index that is 3 or more?
Output: -1

Input: Does the sequence QSSGKLKEYLDLVARTA [YDL116W/NUP84] have recorded protein stability index that is 3 or more?
Output: -1

Input: Does the sequence LLLAANTHLGARNVQVH [RPS0A] have recorded protein stability index that is 3 or more?
Output: -1

Input: Does the sequence CSSATVPKHMLDKLDEI [AAR2] have recorded protein stability index that is 3 or more?
Output: -1

Input: Does the sequence SKDLRSVWKPIAAIIGR [IRR1] have recorded protein stability index that is 3 or more?
Output: -1

Input: Does the sequence NDFTTKLINIKKFDISN [MED1] have recorded protein stability index that is 3 or more?
Output: -1

Input: Does the sequence SIDFRTYRCSIKNLPAD [SRB2] have recorded protein stability index that is 3 or more?
Output: -1

Input: Does the sequence ENEVENINATNTSVLMK [YCS4] have recorded protein stability index that is 3 or more?
Output: 1

Input: Does the sequence KMWFDVQLRYGDYDSHD [PRP8] have recorded protein stability index that is 3 or more?
Output: -1

Input: Does the sequence KVTQMTPAPKISYKKGA [RPL36B] have recorded protein stability index that is 3 or more?
Output: 1

Input: Does the sequence LPKIIQLQGPQWMNEMV [SOH1] have recorded protein stability index that is 3 or more?
Output: 1

Input: Does the sequence FKLGKFNYVAVGDVSNL [QCR2] have recorded protein stability index that is 3 or more?
Output: 1

Input: Does the sequence IIFEIEKPLVVPVKLEE [RRP6] have recorded protein stability index that is 3 or more?
Output: -1
